- Test system: HT-22 cells
- Assay details: Cytotoxicity in HT-22 cell (MTT)
- Type: cell-based, murine
- Condition context: compound 25 μM, 18 hrs
Give measured Cell Survival (%) for each item. Keep answers brief.
Provide the reading as a plain figure in %.

Request: Answer with reported Cell Survival (%) of COc1cc(/C=C/c2cc(/C=C/c3ccc(O)c(OC)c3)nc(SC)n2)ccc1O
Response: 79.0

Request: Answer with reported Cell Survival (%) of Oc1ccc(/C=C/c2cc(O)cc(/C=C/c3ccc(O)cc3)c2)cc1 [Ex. 22, (E,E)-3,5-bis(4′-hydroxystyryl)phenol]
Response: 37.4

Request: Answer with reported Cell Survival (%) of COc1nc(/C=C/c2ccc(OC)c(O)c2)cc(/C=C/c2ccc(OC)c(O)c2)n1
Response: 98.4

Request: Answer with reported Cell Survival (%) of CN(C)c1cc(/C=C/c2cc(O)cc(/C=C/c3ccc(O)c(N(C)C)c3)c2)ccc1O
Response: 66.0

Request: Answer with reported Cell Survival (%) of CSc1nc(/C=C/c2ccc(O)c(N(C)C)c2)cc(/C=C/c2ccc(O)c(N(C)C)c2)n1
Response: 77.3

Request: Answer with reported Cell Survival (%) of CN(C)c1cc(/C=C/c2cc(/C=C/c3ccc(O)c(N(C)C)c3)ncn2)ccc1O
Response: 146.2

Request: Answer with reported Cell Survival (%) of CN(C)c1cc(/C=C/c2cccc(/C=C/c3ccc(O)c(N(C)C)c3)c2)ccc1O
Response: 95.7

Request: Answer with reported Cell Survival (%) of Oc1ccc(/C=C/c2cc(/C=C/c3ccc(O)cc3)ncn2)cc1
Response: 104.2

Request: Answer with reported Cell Survival (%) of Oc1cccc(/C=C/c2cc(/C=C/c3cccc(O)c3)ncn2)c1
Response: 142.5

Request: Answer with reported Cell Survival (%) of Oc1cccc(/C=C/c2cc(O)cc(/C=C/c3cccc(O)c3)c2)c1 [Ex. 23, (E,E)-3,5-bis(3′-hydroxystyryl)phenol]
Response: 59.2

Request: Answer with reported Cell Survival (%) of COc1nc(/C=C/c2ccc(N(C)C)c(O)c2)cc(/C=C/c2ccc(N(C)C)c(O)c2)n1
Response: 101.4

Request: Answer with reported Cell Survival (%) of COc1ccc(/C=C/c2cc(/C=C/c3ccc(OC)c(O)c3)nc(SC)n2)cc1O
Response: 78.8

Request: Answer with reported Cell Survival (%) of CN(C)c1ccc(/C=C/c2cccc(/C=C/c3ccc(N(C)C)c(O)c3)c2)cc1O
Response: 100.8

Request: Answer with reported Cell Survival (%) of COc1nc(/C=C/c2cccc(O)c2)cc(/C=C/c2cccc(O)c2)n1
Response: 45.9

Request: Answer with reported Cell Survival (%) of COc1ccc(/C=C/c2cc(/C=C/c3ccc(OC)c(O)c3)ncn2)cc1O
Response: 135.6

Request: Answer with reported Cell Survival (%) of CSc1nc(/C=C/c2ccc(N(C)C)c(O)c2)cc(/C=C/c2ccc(N(C)C)c(O)c2)n1
Response: 85.3

Request: Answer with reported Cell Survival (%) of CSc1nc(/C=C/c2cccc(O)c2)cc(/C=C/c2cccc(O)c2)n1
Response: 43.7

====

- Test system: beta amyloid (1-42) injected mice
- Assay details: Passive avoidance test, acute Alzheimer's disease model
- Type: in vivo
- Design: concentration or dose not given beside the values
- Condition context: latency relative to control mice
Give measured Passive Avoidance % of control for each item. Keep answers brief.

Request: Determine reported Passive Avoidance % of control for COc1cc(/C=C/c2cc(/C=C/c3ccc(O)c(OC)c3)ncn2)ccc1O ; test system: beta amyloid (1-42) injected mice.
Response: 78.1%

Request: Determine reported Passive Avoidance % of control for CN(C)c1ccc(/C=C/c2cc(/C=C/c3ccc(N(C)C)c(O)c3)ncn2)cc1O ; test system: beta amyloid (1-42) injected mice.
Response: 68.7%

Request: Determine reported Passive Avoidance % of control for COc1ccc(/C=C/c2cc(/C=C/c3ccc(OC)c(O)c3)ncn2)cc1O ; test system: beta amyloid (1-42) injected mice.
Response: 80.9%

Request: Determine reported Passive Avoidance % of control for CN(C)c1cc(/C=C/c2cc(/C=C/c3ccc(O)c(N(C)C)c3)ncn2)ccc1O ; test system: beta amyloid (1-42) injected mice.
Response: 66.1%
